# test_target: FGFR1 (Homo sapiens (Human), UniProt P11362)
# Sequence (P11362 22-822): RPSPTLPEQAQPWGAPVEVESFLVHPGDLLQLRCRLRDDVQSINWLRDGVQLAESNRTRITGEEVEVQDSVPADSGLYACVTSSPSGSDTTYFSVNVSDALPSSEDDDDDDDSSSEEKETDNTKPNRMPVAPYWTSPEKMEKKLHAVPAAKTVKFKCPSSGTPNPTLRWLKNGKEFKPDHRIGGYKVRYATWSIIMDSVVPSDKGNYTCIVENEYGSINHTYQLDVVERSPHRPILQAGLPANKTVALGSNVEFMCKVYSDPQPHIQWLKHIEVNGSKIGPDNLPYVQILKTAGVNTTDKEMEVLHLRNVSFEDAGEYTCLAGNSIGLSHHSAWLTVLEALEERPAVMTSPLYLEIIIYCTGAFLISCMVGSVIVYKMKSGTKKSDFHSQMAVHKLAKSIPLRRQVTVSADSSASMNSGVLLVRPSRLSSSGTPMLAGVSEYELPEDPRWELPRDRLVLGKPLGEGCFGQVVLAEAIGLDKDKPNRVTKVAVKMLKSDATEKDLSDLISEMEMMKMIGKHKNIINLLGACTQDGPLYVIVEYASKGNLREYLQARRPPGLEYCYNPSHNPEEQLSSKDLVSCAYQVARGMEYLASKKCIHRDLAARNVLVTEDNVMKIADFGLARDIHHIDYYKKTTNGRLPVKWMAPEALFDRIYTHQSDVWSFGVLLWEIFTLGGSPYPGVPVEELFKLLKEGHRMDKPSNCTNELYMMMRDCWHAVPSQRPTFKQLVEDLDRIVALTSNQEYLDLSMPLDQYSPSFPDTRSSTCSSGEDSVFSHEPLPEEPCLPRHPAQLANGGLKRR
# experimental_protocol: FGFR enzymatic assay (FRET peptide phosphorylation), FGFR1
# Format: biochemical
# condition_context: FGFR1 enzyme 0.02 nM, ATP 210 μM
pIC50: −log10 of the molar value.
Each record here notes measured pIC50.

{"structure_smiles_string": "COc1cc(OC)c(F)c(N2Cc3cnc4[nH]ncc4c3N(CCc3cnccn3)C2=O)c1F", "test_target": "FGFR1 (Homo sapiens (Human), UniProt P11362)", "pIC50": "> 7.00"}
{"structure_smiles_string": "COc1cc(OC)c(F)c(N2Cc3cnc4[nH]c(Cn5ccnc5)cc4c3N(C)C2=O)c1F", "test_target": "FGFR1 (Homo sapiens (Human), UniProt P11362)", "pIC50": "> 7.00"}
{"structure_smiles_string": "COc1cc(OC)cc(N2Cc3cnc4[nH]ccc4c3N(C3CC3)C2=O)c1", "test_target": "FGFR1 (Homo sapiens (Human), UniProt P11362)", "pIC50": "> 7.00"}

====

# test_target: FGFR3 (Homo sapiens (Human), UniProt P22607)
# Sequence (P22607 23-806): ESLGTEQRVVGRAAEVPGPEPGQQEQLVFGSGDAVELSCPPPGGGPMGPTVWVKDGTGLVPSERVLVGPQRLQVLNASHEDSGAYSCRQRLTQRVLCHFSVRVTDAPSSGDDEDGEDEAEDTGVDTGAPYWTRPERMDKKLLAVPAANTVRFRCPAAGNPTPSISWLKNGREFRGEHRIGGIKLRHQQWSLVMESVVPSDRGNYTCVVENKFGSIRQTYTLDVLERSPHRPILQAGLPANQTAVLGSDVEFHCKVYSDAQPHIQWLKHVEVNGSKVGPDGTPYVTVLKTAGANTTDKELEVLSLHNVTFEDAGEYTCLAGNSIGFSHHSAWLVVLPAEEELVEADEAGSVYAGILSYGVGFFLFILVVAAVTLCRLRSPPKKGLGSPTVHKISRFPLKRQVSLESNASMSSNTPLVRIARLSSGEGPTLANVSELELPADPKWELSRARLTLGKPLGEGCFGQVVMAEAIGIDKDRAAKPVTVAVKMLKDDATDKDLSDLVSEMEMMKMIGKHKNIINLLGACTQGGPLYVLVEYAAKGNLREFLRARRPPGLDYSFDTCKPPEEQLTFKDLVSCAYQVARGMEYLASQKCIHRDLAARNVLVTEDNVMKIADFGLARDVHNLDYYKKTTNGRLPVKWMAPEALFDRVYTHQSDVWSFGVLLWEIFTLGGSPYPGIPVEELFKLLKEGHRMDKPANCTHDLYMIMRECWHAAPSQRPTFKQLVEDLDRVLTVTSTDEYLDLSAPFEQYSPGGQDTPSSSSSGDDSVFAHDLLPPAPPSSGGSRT
# experimental_protocol: FGFR enzymatic assay (FRET peptide phosphorylation), FGFR3
# Type: biochemical
# condition_context: FGFR3 enzyme (Millipore), ATP 140 μM
pIC50: −log10 of the molar value.
Each record here notes measured pIC50.
assay_metric: pIC50

{"compound": "COc1cc(OC)c(F)c(N2Cc3cnc4[nH]ncc4c3N([C@H]3CCCOC3)C2=O)c1F [Example 88]", "assay_metric": "pIC50", "reported_value": "> 7.00"}
{"compound": "COc1cc(OC)c(F)c(N2Cc3cnc4[nH]cc(C)c4c3N(C)C2=O)c1F [Example 104]", "assay_metric": "pIC50", "reported_value": "> 7.00"}
{"compound": "COc1cc(OC)c(F)c(N2Cc3cnc4[nH]ncc4c3N(c3cnn(CC(C)(C)O)c3)C2=O)c1F [Example 173]", "assay_metric": "pIC50", "reported_value": "> 7.00"}
{"compound": "COc1cc(OC)c(F)c(N2Cc3cnc4[nH]c(CCN5CCOCC5)cc4c3N(C3CCC3)C2=O)c1F [Example 183]", "assay_metric": "pIC50", "reported_value": "> 7.00"}
{"compound": "COc1cc(OC)c(F)c(N2Cc3cnc4[nH]c(C5CCOCC5)cc4c3N(C)C2=O)c1F [Example 39]", "assay_metric": "pIC50", "reported_value": "> 7.00"}
{"compound": "COc1cc(OC)c(F)c(N2Cc3cnc4[nH]c(CN5CCOCC5)cc4c3N(CCF)C2=O)c1F [Example 232]", "assay_metric": "pIC50", "reported_value": "> 7.00"}
{"compound": "COc1cc(OC)cc(N2Cc3cnc4[nH]c(C(=O)N5CC(O)C5)cc4c3N(C)C2=O)c1 [Example 20]", "assay_metric": "pIC50", "reported_value": "> 7.00"}
{"compound": "COc1cccc(CN2C(=O)N(c3c(F)c(OC)cc(OC)c3F)Cc3cnc4[nH]ncc4c32)n1 [Example 176]", "assay_metric": "pIC50", "reported_value": "> 7.00"}

====

# test_target: FGFR3 (Homo sapiens (Human))
# experimental_protocol: FGFR enzymatic assay (FRET peptide phosphorylation), FGFR3
# Assay type: biochemical
# condition_context: FGFR3 enzyme (Millipore), ATP 140 μM
Each record here notes measured IC50.
assay_metric: IC50

{"compound": "COc1cc(OC)c(Cl)c(N2Cc3cnc4[nH]c(C(=O)N5CC(O)C5)cc4c3N(C)C2=O)c1", "reported_value": "< 100 nM"}
{"compound": "COc1cc(OC)c(F)c(N2Cc3cnc4[nH]nc(CCN5CCOCC5)c4c3N(C)C2=O)c1F", "reported_value": "< 100 nM"}
{"compound": "COc1cc(OC)c(F)c(N2Cc3cnc4[nH]c(C(=O)N5CCCC(O)C5)cc4c3N(C)C2=O)c1 (centres unmarked)", "reported_value": "< 100 nM"}
{"compound": "COc1cc(OC)c(F)c(N2Cc3cnc4[nH]c(CN5CCN(CCC#N)CC5)cc4c3N(C)C2=O)c1F", "reported_value": "< 100 nM"}
{"compound": "COc1cc(OC)c(F)c(N2Cc3cnc4[nH]ncc4c3N(C(C)C)C2=O)c1F", "reported_value": "< 100 nM"}
{"compound": "COc1cc(OC)c(F)c(N2Cc3cnc4[nH]ncc4c3N(c3nnn(C)n3)C2=O)c1F", "reported_value": "< 100 nM"}
{"compound": "COc1cc(OC)c(F)c(N2Cc3cnc4[nH]ncc4c3N(Cc3cocn3)C2=O)c1F", "reported_value": "< 100 nM"}
{"compound": "CCN1CCN(c2ccc(-c3n[nH]c4ncc5c(c34)N(C)C(=O)N(c3c(F)c(OC)cc(OC)c3F)C5)cc2)CC1", "reported_value": "< 100 nM"}
